# Assay text: MTT assay for cell viability
# Type: cell-based, mouse
# Particulars: mouse, RAW264.7 macrophage cells; 10 μM, 24 h, RAW264.7 cells

- Structure smiles string: "NC(=O)c1nnc2c(=O)n(Cc3ccccc3Cl)c3ccccc3n12"
  viability at 24 h, 10 µM: "74.6%"
- Structure smiles string: "NC(=O)c1nnc2c(=O)n(Cc3ccc(F)cc3)c3ccccc3n12"
  viability at 24 h, 10 µM: "73.5%"
- Structure smiles string: "NC(=O)c1nnc2c(=O)n(Cc3cccc(Cl)c3)c3ccccc3n12"
  viability at 24 h, 10 µM: "87.9%"
- Structure smiles string: "NC(=O)c1nnc2c(=O)n(Cc3ccccc3F)c3ccccc3n12"
  viability at 24 h, 10 µM: "98.5%"
- Structure smiles string: "NC(=O)c1nnc2c(=O)n(Cc3ccc(Cl)cc3Cl)c3ccccc3n12"
  viability at 24 h, 10 µM: "84.7%"
- Structure smiles string: "CCCCCCCCCn1c(=O)c2nnc(C(N)=O)n2c2ccccc21"
  viability at 24 h, 10 µM: "99.2%"
- Structure smiles string: "NC(=O)c1nnc2c(=O)n(Cc3cccc(F)c3)c3ccccc3n12"
  viability at 24 h, 10 µM: "99.5%"
- Structure smiles string: "NC(=O)c1nnc2c(=O)n(Cc3ccc(Cl)cc3)c3ccccc3n12"
  viability at 24 h, 10 µM: "82.2%"

###

Documented viability at 24 h, 30 µM across a set of compounds
# Assay text: MTT assay for cell viability
# Assay type: cell-based, mouse
# Particulars: mouse, RAW264.7 macrophage cells; 30 μM, 24 h, RAW264.7 cells

- Structure smiles string: "CCCCn1c(=O)c2nnc(C(N)=O)n2c2ccccc21"
  viability at 24 h, 30 µM / %: 92.3
- Structure smiles string: "NC(=O)c1nnc2c(=O)n(Cc3ccccc3F)c3ccccc3n12"
  viability at 24 h, 30 µM / %: 66.7
- Structure smiles string: "CCCCCn1c(=O)c2nnc(C(N)=O)n2c2ccccc21"
  viability at 24 h, 30 µM / %: 98
- Structure smiles string: "COc1cc(Cn2c(=O)c3nnc(C(N)=O)n3c3ccccc32)cc(OC)c1OC"
  viability at 24 h, 30 µM / %: 83.7
- Structure smiles string: "NC(=O)c1nnc2c(=O)n(Cc3ccc(Cl)cc3Cl)c3ccccc3n12"
  viability at 24 h, 30 µM / %: 56.7
- Structure smiles string: "NC(=O)c1nnc2c(=O)n(Cc3ccccc3Cl)c3ccccc3n12"
  viability at 24 h, 30 µM / %: 46.3
- Structure smiles string: "NC(=O)c1nnc2c(=O)n(Cc3ccc(Cl)cc3)c3ccccc3n12"
  viability at 24 h, 30 µM / %: 44.7
- Structure smiles string: "COc1ccc(Cn2c(=O)c3nnc(C(N)=O)n3c3ccccc32)cc1"
  viability at 24 h, 30 µM / %: 80.1
- Structure smiles string: "CCCCCCCn1c(=O)c2nnc(C(N)=O)n2c2ccccc21"
  viability at 24 h, 30 µM / %: 81
- Structure smiles string: "NC(=O)c1nnc2c(=O)n(Cc3ccccc3)c3ccccc3n12"
  viability at 24 h, 30 µM / %: 85

###

Documented melting point across a set of compounds

- Structure smiles string: "NC(=O)c1nnc2c(=O)n(Cc3ccc(Cl)cc3Cl)c3ccccc3n12"
  melting point: "266 to 268 °C"
- Structure smiles string: "NC(=O)c1nnc2c(=O)n(Cc3ccccc3F)c3ccccc3n12"
  melting point: "273 to 275 °C"
- Structure smiles string: "CCCCCn1c(=O)c2nnc(C(N)=O)n2c2ccccc21"
  melting point: "232 to 234 °C"
- Structure smiles string: "NC(=O)c1nnc2c(=O)n(Cc3ccc([N+](=O)[O-])cc3)c3ccccc3n12"
  melting point: "273 to 275 °C"
- Structure smiles string: "CCCCCCCCn1c(=O)c2nnc(C(N)=O)n2c2ccccc21"
  melting point: "230 to 232 °C"
- Structure smiles string: "COc1ccc(Cn2c(=O)c3nnc(C(N)=O)n3c3ccccc32)cc1"
  melting point: "264 to 266 °C"
- Structure smiles string: "NC(=O)c1nnc2c(=O)n(Cc3ccccc3Cl)c3ccccc3n12"
  melting point: "278 to 280 °C"
- Structure smiles string: "COc1cccc(Cn2c(=O)c3nnc(C(N)=O)n3c3ccccc32)c1"
  melting point: "266 to 268 °C"
- Structure smiles string: "NC(=O)c1nnc2c(=O)n(Cc3cccc(C(F)(F)F)c3)c3ccccc3n12"
  melting point: "262 to 264 °C"
- Structure smiles string: "N#Cc1ccc(Cn2c(=O)c3nnc(C(N)=O)n3c3ccccc32)cc1"
  melting point: "298 to 300 °C"
- Structure smiles string: "NC(=O)c1nnc2c(=O)n(Cc3cccc(Cl)c3)c3ccccc3n12"
  melting point: "269 to 271 °C"
- Structure smiles string: "CCCCCCCCCn1c(=O)c2nnc(C(N)=O)n2c2ccccc21"
  melting point: "236 to 238 °C"
- Structure smiles string: "CCCCn1c(=O)c2nnc(C(N)=O)n2c2ccccc21"
  melting point: "262 to 264 °C"
- Structure smiles string: "NC(=O)c1nnc2c(=O)n(Cc3ccccc3)c3ccccc3n12"
  melting point: "268 to 270 °C"
- Structure smiles string: "COc1cc(Cn2c(=O)c3nnc(C(N)=O)n3c3ccccc32)cc(OC)c1OC"
  melting point: "286 to 288 °C"
- Structure smiles string: "CCCCCCn1c(=O)c2nnc(C(N)=O)n2c2ccccc21"
  melting point: "239 to 241 °C"
- Structure smiles string: "NC(=O)c1nnc2c(=O)n(Cc3cccc(F)c3)c3ccccc3n12"
  melting point: "276 to 278 °C"
- Structure smiles string: "CCCCCCCn1c(=O)c2nnc(C(N)=O)n2c2ccccc21"
  melting point: "231 to 233 °C"
- Structure smiles string: "NC(=O)c1nnc2c(=O)n(Cc3ccc(F)cc3)c3ccccc3n12"
  melting point: "274 to 276 °C"
- Structure smiles string: "NC(=O)c1nnc2c(=O)n(Cc3ccc(Cl)cc3)c3ccccc3n12"
  melting point: "282 to 284 °C"

###

# System: carrageenan-induced paw oedema
# Assay text: Carrageenan-induced paw oedema model
# Assay type: in vivo, rats
# Particulars: 5 h, 25 mg/kg p.o., n = 4
Documented % of oedema inhibition (% mean ± SD) across a set of compounds

- Compound: "CC(C)Cc1ccc(C(C)C(=O)O)cc1 (stereo not shown)"
  Test system: "carrageenan-induced paw oedema"
  % of oedema inhibition (% mean ± SD): "25.29 ± 3.43%"
- Compound: "COc1cc(Cn2c(=O)c3nnc(C(N)=O)n3c3ccccc32)cc(OC)c1OC"
  Test system: "carrageenan-induced paw oedema"
  % of oedema inhibition (% mean ± SD): "38.24 ± 6.04%"
- Compound: "Cc1ccc(-c2cc(C(F)(F)F)nn2-c2ccc(S(N)(=O)=O)cc2)cc1"
  Test system: "carrageenan-induced paw oedema"
  % of oedema inhibition (% mean ± SD): "41.92 ± 2.05%"
- Compound: "Cc1cccc(Oc2nn3c(C(N)=O)nnc3c3ccccc23)c1 [D1]"
  Test system: "carrageenan-induced paw oedema"
  % of oedema inhibition (% mean ± SD): "28.71 ± 2.92%"

###

# Assay text: MTT assay for cell viability
# Assay type: cell-based, mouse
# Particulars: mouse, RAW264.7 macrophage cells; 30 μM, 24 h, RAW264.7 cells
Observable: viability at 24 h, 30 µM (%)

- Structure smiles string: "NC(=O)c1nnc2c(=O)n(Cc3ccc(F)cc3)c3ccccc3n12"
  Assay result: 48
- Structure smiles string: "NC(=O)c1nnc2c(=O)n(Cc3cccc(Cl)c3)c3ccccc3n12"
  Assay result: 51.7
- Structure smiles string: "CCCCCCn1c(=O)c2nnc(C(N)=O)n2c2ccccc21"
  Assay result: 99.1
- Structure smiles string: "NC(=O)c1nnc2c(=O)n(Cc3ccc([N+](=O)[O-])cc3)c3ccccc3n12"
  Assay result: 80.1
- Structure smiles string: "N#Cc1ccc(Cn2c(=O)c3nnc(C(N)=O)n3c3ccccc32)cc1"
  Assay result: 90.3
- Structure smiles string: "NC(=O)c1nnc2c(=O)n(Cc3cccc(C(F)(F)F)c3)c3ccccc3n12"
  Assay result: 99.3

###

# Assay text: MTT assay for cell viability
# Type: cell-based, mouse
# Particulars: mouse, RAW264.7 macrophage cells; 30 μM, 24 h, RAW264.7 cells
Documented viability at 24 h, 30 µM across a set of compounds

- Compound: "CCCCCCCCCn1c(=O)c2nnc(C(N)=O)n2c2ccccc21 [6f]"
  Quantity unit: "%"
  viability at 24 h, 30 µM: 60
- Compound: "COc1cccc(Cn2c(=O)c3nnc(C(N)=O)n3c3ccccc32)c1 [6n]"
  Quantity unit: "%"
  viability at 24 h, 30 µM: 93.3
- Compound: "NC(=O)c1nnc2c(=O)n(Cc3cccc(F)c3)c3ccccc3n12 [6i]"
  Quantity unit: "%"
  viability at 24 h, 30 µM: 59.3
- Compound: "Cc1cccc(Oc2nn3c(C(N)=O)nnc3c3ccccc23)c1 [D1]"
  Quantity unit: "%"
  viability at 24 h, 30 µM: 96.3
- Compound: "CCCCCCCCn1c(=O)c2nnc(C(N)=O)n2c2ccccc21 [6e]"
  Quantity unit: "%"
  viability at 24 h, 30 µM: 99.5
